- Tested on: L1210 leukemia ip in BDF1 mice, survival T/C
- Assay summary: NCI In Vivo Anticancer Drug Screen. Data for tumor model L1210 Leukemia (intraperitoneal) in B6D2F1 (BDF1) mice
- Measurement context: endpoint: mean survival time; dose: 100.0 mg/kg/injection; schedule: Q04DX003 (ip); vehicle: saline with Tween-80; higher = longer survival
Toxic doses and inconclusive results are not listed.
Below is a list of entries, each paired with its recorded T/C value.

Below, 6 compounds whose answers are already recorded.
INSERT INTO assay_data (compound, result) VALUES
  ('O=[N+]([O-])c1ccc(N/N=C(/CCCCl)c2ccccc2)c([N+](=O)[O-])c1', '96 % of control'),
  ('CCCCCC(=O)NCC(=O)O', '94 % of control'),
  ('CC1(C)C2CCC(CCO)C1C2 (stereo not given)', '92 % of control'),
  ('O=C(CCN1CC=C(c2ccccc2)CC1)c1ccc(Oc2ccccc2)cc1', '96 % of control'),
  ('O=C(O)CCOc1ccc(Cl)cc1', '106 % of control'),
  ('O=C(N/N=C\c1ccc(Cl)cc1)c1ccccc1', '99 % of control');

Task item: Find the measured T/C of OCc1ccc(Cl)cc1Cl and report it.
Reply: 100 % of control

Task item: Find the measured T/C of CC(=O)/C=C/C1C(C)=CCCC1(C)C (stereo not given) and report it.
Reply: 97 % of control
